Values from patent US20250228832A1

Entries annotated with measured Emax
biological target: human M2 receptor (Homo sapiens); assay: SPA GTP (GTPgS) binding curve shift assay, M2; format: biochemical; settings: M2; MK-4710 concentration 0 nM
Just the number please, in %, no unit attached.

compound="CCCCCCCOc1nsnc1C1=CCCCN1C [KTX-593]" val=38.7
compound="CCCCCOc1nsnc1C1=CCCCN1C [KTX-517]" val=45.1
compound="CCCCCCOc1nsnc1C1=CCCN(C)C1 [xanomeline, reference compound]" val=55.6

Next compound, Emax to be filled in.
Looking up CC1OC2(CS1)CN1CCC2CC1 (stereo not shown) [cevimeline, Cevimeline, reference compound] , I see its Emax listed as 39.6

###

target: human M2 receptor (Homo sapiens); test: SPA GTP (GTPgS) binding curve shift assay, M2; assay type: biochemical; conditions: M2; Emraclidine concentration 1110 nM; read-out: Emax
Emax for assorted compounds
The reply should be a number in %, with the unit left off.

compound="CC1OC2(CS1)CN1CCC2CC1 (stereo not shown) [cevimeline, Cevimeline, reference compound]" target_entity="human M2 receptor (Homo sapiens)" measured_parameter=Emax val=51.4
compound="CCCCCOc1nsnc1C1=CCCCN1C [KTX-517]" target_entity="human M2 receptor (Homo sapiens)" measured_parameter=Emax val=65.9
compound="CCCCCCCOc1nsnc1C1=CCCCN1C [KTX-593]" target_entity="human M2 receptor (Homo sapiens)" measured_parameter=Emax val=67.5

As a next step, examine the compound that follows.
So, CCCCCCOc1nsnc1C1=CCCN(C)C1 [xanomeline, reference compound] ? Its Emax was 59.6

###

Molecular target: human M2 receptor (Homo sapiens, UniProt P08172)
Sequence (P08172 1-466): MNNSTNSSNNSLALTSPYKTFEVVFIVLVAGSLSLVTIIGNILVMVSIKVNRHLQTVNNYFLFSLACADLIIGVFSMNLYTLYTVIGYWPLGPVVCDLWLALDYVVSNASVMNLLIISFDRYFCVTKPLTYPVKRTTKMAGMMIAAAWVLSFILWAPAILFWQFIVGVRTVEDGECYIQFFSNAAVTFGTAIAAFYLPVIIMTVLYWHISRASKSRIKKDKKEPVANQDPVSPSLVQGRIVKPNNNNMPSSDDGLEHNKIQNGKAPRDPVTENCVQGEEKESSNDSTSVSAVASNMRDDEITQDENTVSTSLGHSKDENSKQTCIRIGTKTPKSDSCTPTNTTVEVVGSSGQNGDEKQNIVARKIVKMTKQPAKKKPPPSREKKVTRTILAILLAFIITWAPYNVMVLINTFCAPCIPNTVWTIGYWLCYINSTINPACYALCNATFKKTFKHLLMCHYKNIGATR
Test: SPA GTP (GTPgS) binding curve shift assay, M2
Type: biochemical
Conditions: M2; Emraclidine concentration 3330 nM; read-out: Emax
measured.parameter: Emax

Emax recorded for this compound, "CCCCCOc1nsnc1C1=CCCCN1C" , is 79.2%

Emax reading for CC1OC2(CS1)CN1CCC2CC1 (stereo not shown) [cevimeline, Cevimeline, reference compound] : 69.6%

# compound CCCCCCOc1nsnc1C1=CCCN(C)C1 [xanomeline, reference compound] ; its Emax = 64.1%

Form: compound = "CCCCCCCOc1nsnc1C1=CCCCN1C" ; Emax = 75.1%

###

Examples of compounds with documented Emax follow.
molecular target: human M4 receptor (Homo sapiens, UniProt P08173); construct: expressed in transfected cells; assay: SPA GTP (GTPgS) binding curve shift assay, M4; assay type: biochemical; details: Emraclidine concentration 0 nM
Sequence (P08173 whole entry): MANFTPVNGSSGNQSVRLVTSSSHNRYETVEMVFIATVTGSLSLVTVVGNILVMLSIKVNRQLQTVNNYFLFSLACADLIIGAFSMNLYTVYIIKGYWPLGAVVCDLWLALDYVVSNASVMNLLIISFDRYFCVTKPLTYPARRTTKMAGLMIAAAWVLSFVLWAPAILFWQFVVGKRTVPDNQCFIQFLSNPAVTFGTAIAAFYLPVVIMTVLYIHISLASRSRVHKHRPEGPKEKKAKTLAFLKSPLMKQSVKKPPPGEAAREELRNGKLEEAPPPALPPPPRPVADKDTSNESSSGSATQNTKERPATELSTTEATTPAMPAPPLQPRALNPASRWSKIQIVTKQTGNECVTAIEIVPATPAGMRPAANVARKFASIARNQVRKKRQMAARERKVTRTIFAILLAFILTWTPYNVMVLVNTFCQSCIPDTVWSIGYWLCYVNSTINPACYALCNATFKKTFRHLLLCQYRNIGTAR
# unit: % | format: bare number

compound="CCCCCOc1nsnc1C1=CCCCN1C [KTX-517]" target_entity="human M4 receptor (Homo sapiens, UniProt P08173)" measured_parameter=Emax readout_unit=% val=2.6
compound="CC1OC2(CS1)CN1CCC2CC1 (stereo not shown) [cevimeline, Cevimeline, reference compound]" target_entity="human M4 receptor (Homo sapiens, UniProt P08173)" measured_parameter=Emax readout_unit=% val=4.0
compound="CCCCCCCOc1nsnc1C1=CCCCN1C [KTX-593]" target_entity="human M4 receptor (Homo sapiens, UniProt P08173)" measured_parameter=Emax readout_unit=% val=14.3

Emax for CCCCCCOc1nsnc1C1=CCCN(C)C1 [xanomeline, reference compound] is 27.2

###

Target: human M5 receptor (Homo sapiens, UniProt P08912)
Construct: expressed in transfected cells
Sequence (P08912 1-532): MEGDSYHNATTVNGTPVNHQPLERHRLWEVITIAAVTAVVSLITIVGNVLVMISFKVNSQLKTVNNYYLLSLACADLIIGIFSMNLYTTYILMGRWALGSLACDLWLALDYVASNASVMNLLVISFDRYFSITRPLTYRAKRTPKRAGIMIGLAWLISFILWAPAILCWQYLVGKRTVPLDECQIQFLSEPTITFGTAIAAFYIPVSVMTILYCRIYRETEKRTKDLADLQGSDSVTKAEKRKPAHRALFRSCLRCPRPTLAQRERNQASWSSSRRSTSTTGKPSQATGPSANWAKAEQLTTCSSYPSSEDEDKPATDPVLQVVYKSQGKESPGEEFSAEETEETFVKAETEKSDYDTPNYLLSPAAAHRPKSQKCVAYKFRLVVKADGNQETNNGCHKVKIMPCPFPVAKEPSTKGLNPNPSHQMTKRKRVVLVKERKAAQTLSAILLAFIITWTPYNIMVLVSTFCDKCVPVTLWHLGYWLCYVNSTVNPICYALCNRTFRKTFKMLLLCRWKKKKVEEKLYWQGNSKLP
Assay: HTRF IP-One curve shift assay, M5
Format: cell-based
Conditions: M5; Emraclidine concentration 0 nM
Listed here: items and their measured pEC50.
Please treat pEC50 as minus the base-10 logarithm of the molar concentration.

compound="CC1OC2(CS1)CN1CCC2CC1 (stereo not drawn) [cevimeline, Cevimeline, reference compound]" target_entity="human M5 receptor (Homo sapiens, UniProt P08912)" val=5.86
compound=CCCCCOc1nsnc1C1=CCCCN1C target_entity="human M5 receptor (Homo sapiens, UniProt P08912)" val=6.92

response.value for "CCCCCCCOc1nsnc1C1=CCCCN1C" (field: pEC50) = 6.39
